# subject of test: KRas wild type (Homo sapiens (Human))
# Sequence (P01116-2 other isoform, or with tags, fused parts or gaps): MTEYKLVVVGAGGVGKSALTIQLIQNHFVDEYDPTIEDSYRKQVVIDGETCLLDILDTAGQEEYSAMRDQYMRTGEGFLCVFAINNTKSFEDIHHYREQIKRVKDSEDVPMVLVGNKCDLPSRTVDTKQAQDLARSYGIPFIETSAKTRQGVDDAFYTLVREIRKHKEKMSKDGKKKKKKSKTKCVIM
# method summary: Ras GTP binding domain inhibition assay (labeled GTP)
# condition notes: 20 μM compound; KRas wild type; read-out: % Inhibition at 20 μM of K-Ras mutant and wild-type protein, KRas wild type
readout name: inhibition at 20 µM

According to the records, this compound COc1c(O)nc(-c2ccccn2)nc1Oc1cccc(C(F)(F)F)c1 [drawing 3557] displays inhibition at 20 µM of 25 to 50%

Entry under test: Oc1nc(-c2ccccn2)nc2c(CC3CCNC3)csc12 (stereo not drawn) [drawing 3526] . Its inhibition at 20 µM was 25 to 50%

So, COCC(C)Nc1nc(-c2nccn2C)nc2sc(-c3ccccc3)c(-c3ccccc3)c12 (stereo not drawn) [drawing 3577] ? Its inhibition at 20 µM was 1 to 25%

The reported inhibition at 20 µM of the compound COCCNc1nc(-c2nccn2C)nc2sc(-c3ccccc3)c(-c3ccc(OC)cc3)c12 [drawing 3589] was 25 to 50%

The reported inhibition at 20 µM of the compound Cc1sc2c(O)nc(-c3nccn3C)nc2c1-c1ccc(OCC(C)C)nc1 [drawing 3600] was 1 to 25%

COCCNc1nc(-c2nccn2C)nc2sc(C)c(-c3ccccc3)c12 [drawing 3584] has a reported inhibition at 20 µM of 51 to 75%

Per the records, this compound ( Cc1c(C(=O)O)sc2c(O)nc(-c3ccccn3)nc12 [drawing 3475] ) has inhibition at 20 µM equal to 1 to 25%

Given item Oc1nc(-c2ccccn2)nc2c(C3CCCC3)csc12 [drawing 3495] , the value recorded as its inhibition at 20 µM is 25 to 50%

What the record says about Cn1cnc(-c2nc(O)c3scc(-c4cccc(OC(F)(F)F)c4)c3n2)c1 [drawing 3606] : inhibition at 20 µM is 25 to 50%

----------
# subject of test: Rac-1 (Homo sapiens (Human), UniProt P63000)
# method summary: Scintillation Proximity Assay (SPA), GTP affinity for binding domain
readout name: Kd (nM)
Numeric answer only, unit nM assumed.

Response field Kd (Rac-1 (Homo sapiens (Human), UniProt P63000)) for item Nc1nc2c(ncn2[C@@H]2O[C@H](COP(=O)(O)OP(=O)(O)OP(=O)(O)O)[C@@H](O)[C@H]2O)c(=O)[nH]1 : 151

----------
# subject of test: KRas G12D/Q61H double mutant (Homo sapiens (Human), UniProt P01116, G12D/Q61H)
# Sequence (P01116-2 other isoform, or with tags, fused parts or gaps G12D/Q61H): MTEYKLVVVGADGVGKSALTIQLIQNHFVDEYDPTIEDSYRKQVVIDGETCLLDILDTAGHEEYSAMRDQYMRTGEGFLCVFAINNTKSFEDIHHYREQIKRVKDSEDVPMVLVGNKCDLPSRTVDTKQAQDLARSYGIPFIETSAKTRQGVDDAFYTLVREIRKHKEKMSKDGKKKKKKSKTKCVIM
# method summary: Ras GTP binding domain inhibition assay (labeled GTP)
# condition notes: 20 μM compound; read-out: % Inhibition at 20 μM KRas G12D Q61H
readout name: inhibition at 20 µM

The reported inhibition at 20 µM of the compound Cc1sc2c(N)nc(-c3ccccn3)nc2c1-c1ccccc1 [drawing 2837] was 25 to 50%

// inhibition at 20 µM value for OC(CNc1nc(-c2ccccn2)nc2c1CCC2)COCC1CC1 (stereo not drawn) : 25 to 50%

In plain terms, Oc1nc(-c2ccccn2)nc2c(-c3ccc4c(c3)CCCO4)csc12 [drawing 2902] has a documented inhibition at 20 µM of 25 to 50%

The compound listed as COc1ccc(CCNC(=O)c2csc3nc(-c4ccccn4)nc(N4CCN(C)CC4)c23)cn1 has a reported inhibition at 20 µM of 25 to 50%

Noted for COc1ccccc1CC(=O)N(CC(F)(F)F)C1CCCOC1 (stereo not drawn) : its inhibition at 20 µM reads 1 to 25%

The recorded inhibition at 20 µM for COCCCCNC(=O)c1csc2nc(-c3ccccn3)nc(N(CCOC)CCOC)c12 [drawing 2793] is 0%

# compound O=C(c1csc2c(O)nc(-c3ccccn3)nc12)N1CCN(Cc2cccc(O)c2)CC1 [drawing 2726] ; its inhibition at 20 µM = 76 to 100%

Given item O=C(Nc1nc(-c2cccnc2)cs1)c1ccccn1 , the value recorded as its inhibition at 20 µM is 25 to 50%

The reported value for CC(c1nc(N)nc(N(C)C)n1)N1CCN(c2cccc(C(F)(F)F)c2)CC1 (stereo not drawn) in terms of inhibition at 20 µM is 1 to 25%

// field: inhibition at 20 µM; key: Cc1nc(-c2ccccn2)sc1C(=O)NCCNc1cnccn1 ; value = 25 to 50%

Summary for this compound, O=C(CCNS(=O)(=O)c1ccc2c(c1)CCCC2)Nc1nnc(-c2ccccn2)[nH]1 : inhibition at 20 µM is 25 to 50%

# inhibition at 20 µM of CC(OCC1CC1)C(=O)Nc1nnc(-c2ccccn2)[nH]1 (stereo not drawn) = 25 to 50%

Lab note: COc1ccncc1CCNC(=O)c1csc2nc(-c3ccccn3)nc(N3CCOCC3)c12 [drawing 2780] gave inhibition at 20 µM of 1 to 25%

Entry CCOCc1c(C(=O)N(Cc2cccs2)Cc2ccccc2OC)oc2ccccc12 ; inhibition at 20 µM = 1 to 25%

What the record says about O=C(NCCc1cnc(O)nc1)c1csc2nc(-c3ccccn3)nc(N3CCOCC3)c12 [drawing 2810] : inhibition at 20 µM is 1 to 25%

Form: compound = CCc1c(C)sc2[nH]c(-c3ccccn3)nc(=O)c12 ; inhibition at 20 µM = 25 to 50%

// Cc1cc(C)n(CCCNC(=O)c2cc(S(=O)(=O)N3CCOCC3)ccc2N2CCCC2)n1 : inhibition at 20 µM value = 25 to 50%

The compound listed as O=C(c1cnc(-c2ccccc2)s1)N1CCC(c2ccccc2)CC1 has a reported inhibition at 20 µM of 25 to 50%

Sure, the documented inhibition at 20 µM for Cn1nc(-c2ccncc2)cc1NC(=O)c1cccnc1 is 1 to 25%

Form field inhibition at 20 µM, entry Cc1c(-c2ccccc2)sc2[nH]c(-c3ccccn3)nc(=O)c12 : 25 to 50%

inhibition at 20 µM reported for this compound O=C(c1cocn1)N1CCCc2c(O)nc(-c3ccccn3)nc21 [drawing 2649] : 25 to 50%
